system.tested: Cytochrome P450 3A4 (Homo sapiens) (UniProt P08684)
Sequence (P08684 whole entry, looked up): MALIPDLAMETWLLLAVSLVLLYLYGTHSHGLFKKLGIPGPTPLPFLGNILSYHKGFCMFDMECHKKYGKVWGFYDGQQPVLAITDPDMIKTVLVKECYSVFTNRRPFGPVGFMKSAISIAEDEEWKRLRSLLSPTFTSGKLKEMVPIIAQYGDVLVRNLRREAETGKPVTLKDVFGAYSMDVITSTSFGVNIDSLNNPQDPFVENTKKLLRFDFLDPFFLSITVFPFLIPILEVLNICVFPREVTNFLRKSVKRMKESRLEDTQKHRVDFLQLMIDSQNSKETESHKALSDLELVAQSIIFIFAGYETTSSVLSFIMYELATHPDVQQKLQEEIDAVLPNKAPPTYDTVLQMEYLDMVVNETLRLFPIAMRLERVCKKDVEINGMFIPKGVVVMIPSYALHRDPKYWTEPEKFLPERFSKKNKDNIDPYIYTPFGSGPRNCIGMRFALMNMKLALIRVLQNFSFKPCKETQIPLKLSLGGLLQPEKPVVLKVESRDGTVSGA
experiment.summary: qHTS Assay for Activators of Cytochrome P450 3A4 (AID 885); note: nearly all actives have a fitted effect of over 65% in size
details: recombinant CYP3A4, Luciferin-PPXE luminescence, 60 min; series mostly up to 57.1 µM
Activity calls are given as the source filed them. Calls come from the whole dose curve; as a rule, active = well fitted activation curve with a large enough effect; inconclusive = small, poorly fitted or top-dose-only effect; inactive = no such curve, though single readings can be large or run the other way.
endpoint: activity change, positive = activation

CO[C@@H]1/C=C\CC(=O)N[C@@H](C)C(=O)OC[C@H](NS(=O)(=O)c2ccc(C)cc2)[C@H](C)/C=C\CC(=O)OC[C@H]1C
-37.9% [at 11.4 µM] (inactive)
COC(=O)[C@@H]1C[C@@]2(O)[C@@H](O)[C@@H](O)[C@@H](O)C[C@H]2N1Cc1cc(F)ccc1F
inactive
COC(=O)[C@H]1C[C@@H]2CC[C@@H](O)C[C@@H]2N1Cc1c(F)cccc1Cl
inactive
COc1ccc(O[C@H]2C=C[C@@H](c3ccccc3)O[C@H]2COC(=O)CC/C(C)=N\O[C@@H](C)c2cc(-c3c(C)cc(C)cc3C)no2)cc1
-63.2% [at 11.4 µM] (inactive)
CCO[C@H](c1cc(OC)cc([N+](=O)[O-])c1OC)[C@H](C)/C=C\CC(=O)OC
-72.1% [at 11.4 µM] (inactive)

Prompt: Give activity change, positive = activation for this entry on Cytochrome P450 3A4 (Homo sapiens) (UniProt P08684): COc1ccc(CNC(=O)C(C)Cc2ccccc2)cc1O (stereo unspecified)
Response: inactive

Prompt: Give activity change, positive = activation for this entry on Cytochrome P450 3A4 (Homo sapiens) (UniProt P08684): `COC(=O)[C@@]1(Cc2ccc(OC)cc2)[C@H]2c3cc(C(=O)N4CCCC4)n(Cc4nc5ccccc5[nH]4)c3C[C@H]2CN1C(=O)c1ccccc1`
Response: inactive

Prompt: Give activity change, positive = activation for this entry on Cytochrome P450 3A4 (Homo sapiens) (UniProt P08684): `CO[C@@H]1/C=C\CC(=O)N[C@@H](C)C(=O)OC[C@@H](OC)[C@H](C)CCCC(=O)OC[C@H]1C`
Response: -57.1% [at 11.4 µM] (inactive)

Prompt: Give activity change, positive = activation for this entry on Cytochrome P450 3A4 (Homo sapiens) (UniProt P08684): `COC(=O)C/C=C\[C@@H](C)[C@@H](/C=N\OC[C@@H](O)[C@H]1O[C@H]2OC(C)(C)O[C@H]2[C@@H]1O)OC`
Response: -43.3% [at 11.4 µM] (inactive)

Prompt: Give activity change, positive = activation for this entry on Cytochrome P450 3A4 (Homo sapiens) (UniProt P08684): OCC1OC(/C=C\c2ccccc2)C=CC1Oc1ccc2c(c1)OCO2 (stereo unspecified)
Response: -105% [at 11.4 µM] (inactive)

Prompt: Give activity change, positive = activation for this entry on Cytochrome P450 3A4 (Homo sapiens) (UniProt P08684): `CCCNC(=O)OC[C@@H]1O[C@H](CCO/N=C(\C)CCC(=O)OC[C@@H]2O[C@H](c3ccccc3)C=C[C@@H]2Oc2ccc(OC)cc2)C=C[C@@H]1Oc1ccc(OC)cc1`
Response: -87% [at 11.4 µM] (inactive)

Prompt: Give activity change, positive = activation for this entry on Cytochrome P450 3A4 (Homo sapiens) (UniProt P08684): C=C(C)C(O)/C=C/c1cccc(OC)c1 (stereo unspecified)
Response: -69.2% [at 11.4 µM] (inactive)

###

system.tested: Cytochrome P450 3A4 (Homo sapiens)
experiment.summary: qHTS Assay for Inhibitors and Substrates of Cytochrome P450 3A4 (AID 884); note: nearly all actives have a fitted effect of over 50% in size
details: recombinant CYP3A4, Luciferin-PPXE luminescence; series mostly up to 57.1 µM
Results filed as inconclusive are left out. Activity calls are given as the source filed them. Calls come from the whole dose curve; as a rule, active = well fitted inhibition curve with a large enough effect; inconclusive = small, poorly fitted or top-dose-only effect; inactive = no such curve, though single readings can be large or run the other way.
Log the outcome using a class from yes (1) for active, no (0) for inactive

COc1ccc(/C=C/C2=CC3(C)CC2(C)C(c2ccc(OC)cc2)CC3=O)cc1 (centres undefined)
yes (1)
CCCCCCN(C(=O)CCCCCN1C(=O)NC(c2ccc([N+](=O)[O-])cc2)C(C(=O)OCc2ccccc2)=C1C)C(C(=O)NCCCC)c1ccc(OCC(=O)OC)c(C(=O)OC)c1 (centres undefined)
yes (1)
CN1C[C@@H]2C(c3ccc(C(F)(F)F)cc3)C3(c4ccccc4)CC2(C3)[C@H]1c1ccccc1 (some centres undefined)
no (0)

Prompt: Hey, what did the test say about COCCNC(=O)C1(C)C=CC2(CCCCC2)N1C(=O)c1ccccc1 (centres undefined) ?
Response: yes (1)

###

system.tested: Ubiquitin carboxyl-terminal hydrolase 2 (Homo sapiens) (UniProt O75604)
Sequence (O75604 whole entry, looked up): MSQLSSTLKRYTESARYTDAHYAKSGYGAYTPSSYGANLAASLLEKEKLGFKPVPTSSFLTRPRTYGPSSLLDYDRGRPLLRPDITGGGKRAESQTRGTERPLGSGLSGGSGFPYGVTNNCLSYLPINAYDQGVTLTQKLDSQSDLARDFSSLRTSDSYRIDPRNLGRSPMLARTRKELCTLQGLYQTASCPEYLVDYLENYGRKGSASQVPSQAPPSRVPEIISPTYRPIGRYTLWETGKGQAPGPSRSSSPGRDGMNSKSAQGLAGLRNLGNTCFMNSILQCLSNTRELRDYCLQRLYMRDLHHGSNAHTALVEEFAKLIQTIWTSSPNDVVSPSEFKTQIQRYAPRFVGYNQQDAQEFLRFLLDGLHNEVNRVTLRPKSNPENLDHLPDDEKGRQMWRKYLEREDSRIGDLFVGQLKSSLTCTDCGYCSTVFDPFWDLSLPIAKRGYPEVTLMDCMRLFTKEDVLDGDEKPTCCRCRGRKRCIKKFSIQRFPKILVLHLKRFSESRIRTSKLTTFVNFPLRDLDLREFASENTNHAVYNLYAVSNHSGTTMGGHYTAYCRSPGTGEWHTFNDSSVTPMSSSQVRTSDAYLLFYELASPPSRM
experiment.summary: qHTS for Inhibitors of Ubiquitin-specific Protease USP2a Using CHOP2 as the Reporter: K484 Substrate (AID 652173);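 note: cleavage of internally quenched K48 di-ubiquitin substrate measured as rising fluorescence over time; potency is the fitted concentration of half-maximal effect; nearly all actives have a fitted effect of over 70% in size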
details: USP2 cleavage of DiUb K48 IQF substrate, fluorescence; series mostly up to 57.5 µM
Inconclusive results are not listed. Active and inactive are the calls of the source. The call rests on the fitted dose curve; in most records, active means well fitted inhibition curve with a large enough effect; inconclusive means small, poorly fitted or top-dose-only effect; inactive means flat fitted curve, though single readings scatter.
Log the outcome using a class from active, inactive

Prompt: Hey, what did the test say about `Cc1ccc(-c2cc(C(=O)Nc3ccc(S(=O)(=O)Nc4ccncc4)cc3)c3ccccc3n2)cc1C` ?
Response: active

Prompt: Hey, what did the test say about `CC(C)Cc1ccc(-c2csc(Nc3ccc(S(=O)(=O)Nc4nccs4)cc3)n2)cc1` ?
Response: active

Prompt: Hey, what did the test say about `CCc1ccc(S(=O)(=O)Nc2cnccc2C(=O)Nc2nc(-c3ccccc3)cs2)cc1` ?
Response: active

Prompt: Hey, what did the test say about `Cc1ccc(S(=O)(=O)Nc2cnccc2C(=O)Nc2nc(-c3cnn(C)c3)cs2)cc1` ?
Response: active

Prompt: Hey, what did the test say about `N#Cc1ccc(S(=O)(=O)Nc2cnccc2C(=O)Nc2nc(-c3ccccc3)cs2)cc1` ?
Response: active

Prompt: Hey, what did the test say about `O=C(Nc1nc(-c2ccc(F)cc2)cs1)c1ccncc1NS(=O)(=O)c1ccc(F)cc1` ?
Response: active

###

Test system: CP252
experiment.summary: qHTS profiling for inhibitors of Plasmodium falciparum proliferation (AID 504749); note: nearly all actives have a fitted effect of over 60% in size; note: potency is the fitted concentration of half-maximal effect
details: P. falciparum in erythrocytes, SYBR Green DNA, 72 h; series mostly up to 28.7 µM
Records with an inconclusive call do not appear. Active and inactive are the calls of the source. The call rests on the fitted dose curve; in most records, active means well fitted inhibition curve with a large enough effect; inconclusive means small, poorly fitted or top-dose-only effect; inactive means flat fitted curve, though single readings scatter.
endpoint: Potency

Worked examples, 4 molecules total:
CCOC(=O)C(CS)NCCN[C@@H](CS)C(=O)OCC (stereo not given in full)
inactive
CCC(Oc1ccccc1)C(=O)NC1C(=O)N2C1SC(C)(C)C2C(=O)O (stereo not given)
inactive
CC(=O)OCC1=C(C(=O)O)N2C(=O)C(NC(=O)Cc3ccccc3)C2SC1 (stereo not given)
inactive
O=C(OCC1OC(OC(=O)c2cc(O)c(O)c(OC(=O)c3cc(O)c(O)c(O)c3)c2)[C@@H](OC(=O)c2cc(O)c(O)c(OC(=O)c3cc(O)c(O)c(O)c3)c2)C(OC(=O)c2cc(O)c(O)c(OC(=O)c3cc(O)c(O)c(O)c3)c2)C1OC(=O)c1cc(O)c(O)c(OC(=O)c2cc(O)c(O)c(O)c2)c1)c1cc(O)c(O)c(OC(=O)c2cc(O)c(O)c(O)c2)c1 (stereo not given in full)
2.51 µM (active)

# next molecule below
Prompt: Supply Potency value. Item: CC(C)C[C@H](NC(=O)[C@@H](Cc1c[nH]c2ccccc12)NC(=O)[C@@H](Cc1ccc(O)cc1)NC(=O)[C@@H](CO)NC(=O)[C@@H](Cc1c[nH]c2ccccc12)NC(=O)C(Cc1cnc[nH]1)NC(=O)C1CCC(=O)N1)C(=O)N[C@@H](CCCN=C(N)N)C(=O)N1CCC[C@@H]1C(=O)NCC(N)=O (stereo not given in full)
Response: inactive

###

experiment.summary: qHTS assay for small molecule activators of the human pregnane X receptor (PXR) signaling pathway (AID 720659); note: 0% is about no effect
details: DPX-2 HepG2 CYP3A4-luciferase, 24 h; series mostly up to 92.3 µM
Calls of active or inactive are those of the source. The rule behind the calls is not given here.
endpoint: outcome

Worked examples, 5 molecules total:
CCCCCCCCCCCCCCCCCC(N)=O
inactive
C=CCCCCCCCCCCCC
inactive
CCCCCCCCCCCC[N+](C)(C)C
inactive
C/C=C/C/C=C\CCCCCCCCOC(C)=O
inactive
CNc1nc(=O)n(C2CCCCC2)c(=O)n1C
inactive

Prompt: Supply outcome value. Item: `CCCCN(CCCC)CCCCCCN(CCCC)CCCC`
Response: inactive

Prompt: Supply outcome value. Item: CN(C)c1nc(=O)n(C2CCC(O)CC2)c(=O)n1C (configuration not stated)
Response: inactive

###

# reported max response; entries follow
experiment.summary: qHTS assay for small molecule agonists of retinoid X receptor alpha signaling (AID 588544)
details: HEK293T RXRa-UAS-bla, beta-lactamase reporter, 18 h; 530 nm emission
Inconclusive results are not listed.
Write the number in % without appending the unit.

Worked examples, 4 compounds total:
CO[Si](CCCOCC1CO1)(OC)OC (configuration not stated)
-16.2
O=C(O)c1ccc(C(=O)O)c(C(=O)O)c1
-17.6
O=c1oc(=O)c2cc3c(=O)oc(=O)c3cc12
-7.31
C=C(C)C(=O)OCCOC(=O)C(=C)C
0.328

Prompt: Supply max response value. Item: `CC(C)c1ccc(C(C)C)cc1`
Response: -15.2

Prompt: Supply max response value. Item: `O=[N+]([O-])c1ccc2c(c1)Cc1ccccc1-2`
Response: -11.5

Prompt: Supply max response value. Item: `COC(=O)c1ccc(I)cc1S(=O)(=O)NC(=O)Nc1nc(C)nc(OC)n1`
Response: -6.12
